Origin of measurements: PubChem BioAssay (NCI)

Please provide measured TGI for the entries that follow.
Tested on: UACC-257 melanoma
Test Description: NCI tumour cell line growth inhibition, 48 h
Give bare numbers, in µM.

Provide reported TGI for each item, in the same order as listed.
1. CSC(=N)N1N=C2c3ccccc3CC[C@@H]2[C@@H]1c1ccccc1
2. COC(=O)c1c2c(c(C)[n+]([O-])c1C)C(=O)C(NCc1ccc(F)c(F)c1)=CC2=O
3. COC(=O)C1=CC2OC13CC1CCC3(C2=O)C1(C)C (stereo unspecified)

Solution:
1. 35.3
2. 2.96
3. 24.1

---

Tested on: HOP-62 NSCLC
Test Description: NCI tumour cell line growth inhibition, 48 h; in the data active means GI50 below about 0.43 µM; inactive means the rest
The reply should name one outcome from active, inactive

// known answers, use as guide
CCC[CH2][Sn]([CH2]CCC)([S]C1=NCCS1)[S]C1=NCCS1 = inactive
CN(C)CC1CCn2c(c(C3=C(c4cn(C)c5ccccc45)C(=O)NC3=O)c3ccccc32)C1 (stereo not given) = inactive
COC(=O)c1c2c(c(C)[n+]([O-])c1C)C(=O)C(NCc1ccc(F)c(F)c1)=CC2=O = inactive
CCCCCCCCCCCCCCCCOCCCOP(=O)(O)C1CCCN(O)C1=O (stereo not given) = inactive

Now turn to the next compound.
Exercise: Which outcome was entered for the compound CCNc1nc(N2CC(=O)Nc3cc(OC)ccc32)c2ccccc2n1 in this test?
Solution: active
